assay_endpoint: melting point

>>> df
                                    molecule  value_measured
 0  CS(=O)(=O)n1cc(/C=N/NC(=S)Nc2ccccc2)c2ccccc21 [Compound 4c]   220 to 222 °C
 1  COc1ccc(N2CC(=O)S/C2=N\N=C\c2cn(S(C)(=O)=O)c3ccccc23)cc1 [Compound 5e]   273 to 275 °C
 2  Cc1ccc(NC(=S)N/N=C/c2cn(S(C)(=O)=O)c3ccccc23)cc1 [Compound 4d]   237 to 239 °C
 3  CS(=O)(=O)n1cc(/C=N/NC(N)=S)c2ccccc21 [Compound 4a]   178 to 180 °C
 4  CS(=O)(=O)n1cc(/C=N/N=C2\SC(=O)CN2c2ccccc2)c2ccccc21 [Compound 5c]   260 to 262 °C
 5  CS(=O)(=O)n1cc(/C=N/NC(N)=O)c2ccccc21 [Compound 3a]   238 to 240 °C
 6  CCNC(=S)N/N=C/c1cn(S(C)(=O)=O)c2ccccc12 [Compound 4b]   240 to 242 °C
 7  Cc1ccc(N2C(=O)CSC2=NN=Cc2cn(S(C)(=O)=O)c3ccccc23)cc1 [Compound 5d]   271 to 273 °C
 8  CS(=O)(=O)n1cc(/C=N/NC(=O)Nc2ccccc2)c2ccccc21 [Compound 3b]   234 to 236 °C
 9  CCN1CC(=O)S/C1=N\N=C\c1cn(S(C)(=O)=O)c2ccccc12 [Compound 5b]   230 to 232 °C
10  COc1ccc(NC(=S)N/N=C/c2cn(S(C)(=O)=O)c3ccccc23)cc1 [Compound 4e]   214 to 216 °C
